For each of the molecules below, state its IC50.
Biological target: human CGT (ceramide galactosyltransferase), CHO/CGT lysate (Homo sapiens)
Construct: Full-length human CGT cDNA was cloned into the BamH1/Xho1 site of pcDNA3.1 (+); expressed in transfected cells; host or cells: Chinese hamster ovary (CHO) cells; lysate prepared with M-PER
Sequence (Q16880 21-541): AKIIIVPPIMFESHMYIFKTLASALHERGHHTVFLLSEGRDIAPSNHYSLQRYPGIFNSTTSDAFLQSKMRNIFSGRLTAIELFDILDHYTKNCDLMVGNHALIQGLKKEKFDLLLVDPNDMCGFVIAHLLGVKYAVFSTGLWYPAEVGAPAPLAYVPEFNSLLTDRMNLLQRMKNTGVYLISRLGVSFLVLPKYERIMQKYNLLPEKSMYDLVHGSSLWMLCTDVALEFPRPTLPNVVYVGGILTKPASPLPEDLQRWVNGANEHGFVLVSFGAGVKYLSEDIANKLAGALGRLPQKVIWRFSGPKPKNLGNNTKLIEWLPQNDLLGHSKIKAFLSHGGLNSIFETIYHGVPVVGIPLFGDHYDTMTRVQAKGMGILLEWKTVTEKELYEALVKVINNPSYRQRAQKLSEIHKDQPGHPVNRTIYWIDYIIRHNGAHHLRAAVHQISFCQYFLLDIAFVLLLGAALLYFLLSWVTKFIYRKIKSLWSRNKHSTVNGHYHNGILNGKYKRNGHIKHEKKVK
Assay: CGT enzyme assay, RapidFire/MS/MS readout with 0.01% Tween added (Table 1 ranges with two asterisks **)
Type: biochemical
Details: CGT enzymatic assay; range with two asterisks (**): RapidFire/MS/MS method with 0.01% Tween added
Where a name gives a salt, the structure may show the parent alone.

Request: Which IC50 is reported for this molecule? NC1CC2CCC(C1)N2C(=O)[C@H](NS(=O)(=O)c1ccc(OCC2CCCCC2)cc1)C(F)(F)c1ccc(Cl)s1 (some centres unmarked)
Response: 30 to 100 µM

Request: Which value of IC50 has been reported for NC1CCN(C(=O)[C@@H](NS(=O)(=O)c2ccc(OCC3CCCCC3)cc2)C(F)(F)c2ccc3c(c2)oc2cc(Cl)ccc23)CC1 in the records?
Response: 1 to 10 µM

Request: Need IC50, item NC1CC2CCC(C1)N2C(=O)[C@H](NC(=O)[C@@H](O)c1ccc(OCC2CCCCC2)cc1)C(F)(F)c1ccc(-c2ccc(Cl)cc2)cc1 (some centres unmarked) [Compound 152-2, trifluoroacetate]
Response: 30 to 100 µM

Request: Requested field: IC50. Item: NC1CC2CCC(C1)N2C(=O)[C@@H](NC(=O)[C@@H](O)c1ccc2cc(OC3CCCC3)ccc2c1)C(F)(F)c1ccc2cc(Br)ccc2c1 (some centres unmarked) [Compound 158-3, trifluoroacetate]
Response: 10 to 30 µM

Request: Entry CN(CCCN)C(=O)[C@H](NS(=O)(=O)c1ccc2cc(OC3CCCC3)ccc2c1)C(F)(F)c1ccc(-c2ccc(Cl)cc2)cc1 has what IC50?
Response: 30 to 100 µM

Request: What measured IC50 goes with N[C@@H]1CCN(C(=O)[C@H](NS(=O)(=O)c2ccc3cc(OC4CCCC4)ccc3c2)C(F)(F)c2ccc(-c3ccc(Cl)cc3)cc2)C1 ?
Response: 1 to 10 µM

Request: Which measured IC50 value corresponds to N[C@@H]1CCN(C(=O)[C@@H](NS(=O)(=O)c2ccc3cc(OC4CCCC4)ccc3c2)C(F)(F)c2ccc(-c3ccc(Cl)cc3)cc2)C1 [Compound 149-1, trifluoroacetate] ?
Response: < 1 µM

Request: Item NC1C2CCC1CN(C(=O)[C@H](NS(=O)(=O)c1ccc(OCC3CCCCC3)cc1)C(F)(F)c1ccc(-c3ccc(Cl)cc3)cc1)C2 (some centres unmarked) has what recorded IC50?
Response: 1 to 10 µM

Request: Look up IC50 for this molecule: O=C([C@H](NS(=O)(=O)c1ccc2cc(OC3CCCC3)ccc2c1)C(F)(F)c1ccc(-c2ccc(Cl)cc2)cc1)N1C[C@H]2CNC[C@H]2C1 [Compound 147-2, trifluoroacetate]
Response: 10 to 30 µM

Request: Can you look up the measured IC50 of NC1CCN(C(=O)[C@H](NC(=O)C(=O)c2cc3ccc(OC4CCCC4)cc3s2)C(F)(F)c2ccc(-c3ccc(Cl)cc3)cc2)CC1 [Compound 175-2, trifluoroacetate] for me?
Response: 30 to 100 µM

Request: So what does the record say about IC50 for N[C@@H]1CCN(C(=O)[C@@H](NS(=O)(=O)c2ccc(OCC3CCCCC3)cc2)C(F)(F)c2ccc(Cl)cc2)C1 ?
Response: 1 to 10 µM
